Attribution: ChEMBL document CHEMBL4325863

# IC50 annotations
target: Cholinesterase (Equus caballus); experiment: Inhibition of equine serum BuChE using butyrylthiocholine iodide as substrate by Ellman's method
Sequence (P81908 whole entry): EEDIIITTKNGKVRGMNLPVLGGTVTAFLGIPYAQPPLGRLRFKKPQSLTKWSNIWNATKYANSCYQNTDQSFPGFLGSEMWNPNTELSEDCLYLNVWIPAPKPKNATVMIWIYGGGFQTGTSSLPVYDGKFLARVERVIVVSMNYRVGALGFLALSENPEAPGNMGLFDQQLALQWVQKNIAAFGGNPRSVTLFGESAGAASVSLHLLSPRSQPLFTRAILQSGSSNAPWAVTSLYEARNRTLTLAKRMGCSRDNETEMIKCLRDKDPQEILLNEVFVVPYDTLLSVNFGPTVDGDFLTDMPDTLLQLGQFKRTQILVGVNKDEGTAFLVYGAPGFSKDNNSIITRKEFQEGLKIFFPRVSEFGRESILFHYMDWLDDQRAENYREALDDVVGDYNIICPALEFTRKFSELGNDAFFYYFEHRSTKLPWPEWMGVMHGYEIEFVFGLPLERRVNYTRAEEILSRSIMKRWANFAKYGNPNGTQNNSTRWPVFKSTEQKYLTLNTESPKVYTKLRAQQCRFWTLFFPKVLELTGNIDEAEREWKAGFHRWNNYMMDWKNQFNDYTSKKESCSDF

Molecule: Cc1cc(=O)oc2cc(OCC3CCN(Cc4cccc(CO)c4)CC3)ccc12
Assay target: Cholinesterase (Equus caballus)
IC50 (µM): 1.9
//
Molecule: Cc1c(C)c2ccc(OCC3CCN(Cc4ccc(CO)cc4)CC3)cc2oc1=O
Assay target: Cholinesterase (Equus caballus)
IC50 (µM): 8.8
//
Molecule: O=c1ccc2ccc(OCC3CCCN(CCCO)C3)cc2o1 (stereo unspecified)
Assay target: Cholinesterase (Equus caballus)
IC50 (µM): 1.7
//
Molecule: Cc1c(C)c2ccc(OCc3cccc(CN4CCC(CO)CC4)c3)cc2oc1=O
Assay target: Cholinesterase (Equus caballus)
IC50 (µM): 1
//
Molecule: Cc1c(C)c2ccc(OCC3CCCN(Cc4ccc(CO)cc4)C3)cc2oc1=O (stereo unspecified)
Assay target: Cholinesterase (Equus caballus)
IC50 (µM): 8.6
//
Molecule: Cc1c(C)c2ccc(OCC3CCN(CCCCO)CC3)cc2oc1=O
Assay target: Cholinesterase (Equus caballus)
IC50 (µM): 8.3
